Provenance of the data: PubChem BioAssay (NCATS)

# Test system: Zika virus NS2B-NS3 protease (unlinked complex)
# test summary: Primary screen GU Rhodamine qHTS for Zika virus inhibitors: Unlinked NS2B-NS3 protease assay (AID 1347159); also: nearly all actives have a fitted effect of over 60% in size
# assay setup: Recombinant ZIKV NS2B-NS3 protease, Rhodamine110 substrate fluorescence; series mostly up to 107 µM
Inconclusive results are not listed. Activity calls are given as the source filed them. Calls follow the shape of the dose curve; as a rule, active = well fitted inhibition curve with a large enough effect; inconclusive = small, poorly fitted or top-dose-only effect; inactive = no such curve, though single readings can be large or run the other way.
Your response should consist of one outcome taken from active, inactive

A selection of reference data follows.
{"compound": "C=C[C@H]1[C@H](O[C@@H]2O[C@H](CO)[C@@H](O)[C@H](O)[C@H]2O)OC=C2C(=O)OCC[C@]21O", "group": "active"}
{"compound": "Nc1nonc1C(=Nc1ccc(F)c(Cl)c1)NO", "group": "inactive"}
{"compound": "CC1(C)CC[C@]2(C(=O)O)CC[C@]3(C)C(=CCC4[C@@]5(C)C[C@H](O)[C@H](O[C@@H]6OC[C@H](O)[C@H](O)[C@H]6O)[C@@](C)(CO)C5CC[C@]43C)[C@@H]2C1 (some centres undefined)", "group": "inactive"}

Shift focus to the following entry.
Check the results log: what was the call for CC(NC(=O)CC(=O)O)c1nc2ccccc2c(=O)[nH]1 (centres undefined) ? active

----------
# test summary: qHTS assay to identify small molecule inhibitors of chordoma cells - UCH-2 (AID 1259356)
# assay setup: UCH-2 chordoma viability, CellTiter-Glo ATP luminescence, 48 h; series mostly up to 46.1 µM
Records with an inconclusive call do not appear. Calls of active or inactive are those of the source. Calls come from the whole dose curve; as a rule, active = well fitted cell-killing curve with a large enough effect; inconclusive = small, poorly fitted or top-dose-only effect; inactive = flat fitted curve, though single readings scatter. Where a SMILES comes first, the peptide text is derived from it. Bridges are numbered along the chain shown (N, C = ends). [ ]: non-standard residue; d: D form. The star is where a group is joined. Dab(CH2SO3H) = N[C@@H](CCNCS(=O)(=O)O)C(=O)O; X3 = CC[C@@H](C)CCCCC(=O)*; Dab = NCC[C@H](N)C(=O)O
Your response should consist of one outcome taken from active, inactive

A selection of reference data follows.
{"molecule": "CCCCC(=O)O[C@]1(C(=O)CO)[C@H](C)C[C@H]2[C@@H]3CCC4=CC(=O)C=C[C@]4(C)[C@@]3(F)[C@@H](O)C[C@@]21C", "group": "inactive"}
{"molecule": "Nc1nc(N)c2nc(CNc3ccc(C(=O)N[C@@H](CCC(=O)O)C(=O)O)cc3)cnc2n1", "group": "inactive"}
{"molecule": "CCCC(=O)O[C@]1(C(=O)CCl)[C@H](C)C[C@@H]2[C@H]3CCC4=CC(=O)C=C[C@]4(C)[C@@]3(F)C(=O)C[C@@]21C", "group": "inactive"}
{"molecule": "CCCCCCCCCCCC[n+]1ccc2ccccc2c1", "group": "active"}
{"molecule": "COCC(=O)Nc1cc(Sc2ccccc2)ccc1N=C(NC(=O)OC)NC(=O)OC", "group": "inactive"}

Check the results log: what was the call for CC[C@@H](C(=O)O)[C@@H]1O[C@@H]([C@@H](C)[C@H](O)[C@H](C)C(=O)[C@H](CC)[C@H]2O[C@]3(C=C[C@@H](O)[C@]4(CC[C@@](C)([C@H]5CC[C@](O)(CC)[C@H](C)O5)O4)O3)[C@H](C)C[C@@H]2C)[C@@H](C)C[C@@H]1C ? active

Check the results log: what was the call for CCCCC(CC)COC(=O)CC(C(=O)OCC(CC)CCCC)S(=O)(=O)O (stereo unspecified) ? inactive

Check the results log: what was the call for Cc1cc(C(=O)NNCc2ccccc2)no1 ? inactive

Check the results log: what was the call for Cc1cc(/C=C/c2ccc3cc(N(C)C)ccc3[n+]2C)c(C)n1-c1ccccc1 ? inactive

Check the results log: what was the call for N[C@H](C(=O)O)[C@@H]1CC(Cl)=NO1 ? inactive

Check the results log: what was the call for CC[C@@H](C)CCCCC(=O)N[C@@H](CCNCS(=O)(=O)O)C(=O)N[C@H](C(=O)N[C@@H](CCNCS(=O)(=O)O)C(=O)N[C@H]1CCNC(=O)[C@H]([C@@H](C)O)NC(=O)[C@H](CCNCS(=O)(=O)O)NC(=O)[C@H](CCNCS(=O)(=O)O)NC(=O)[C@H](CC(C)C)NC(=O)[C@@H](CC(C)C)NC(=O)[C@H](CCNCS(=O)(=O)O)NC1=O)[C@@H](C)O (X3-[Dab(CH2SO3H)]T[Dab(CH2SO3H)][Dab][Dab(CH2SO3H)][dL]L[Dab(CH2SO3H)][Dab(CH2SO3H)]T; lactam 4-C) ? inactive

Check the results log: what was the call for CO[C@H]1C=CO[C@@]2(C)Oc3c(C)c(O)c4c(O)c(c(/C=N/N5CCN(C6CCCC6)CC5)c(O)c4c3C2=O)NC(=O)/C(C)=C\C=C[C@H](C)[C@H](O)[C@@H](C)[C@@H](O)[C@@H](C)[C@H](OC(C)=O)[C@@H]1C ? inactive

Check the results log: what was the call for O=C(O)CN(CCN(CC(=O)O)CC(=O)O)CC(=O)O ? inactive

Check the results log: what was the call for C[C@H]1C[C@H]2[C@@H]3CCC4=CC(=O)C=C[C@]4(C)[C@@]3(F)[C@@H](O)C[C@]2(C)[C@@]1(O)C(=O)CO ? inactive

Check the results log: what was the call for CN(C)CC/C=C1/c2ccccc2CSc2ccccc21 ? inactive

Check the results log: what was the call for O=C1CSC2(CCN(CCCN3c4ccccc4Sc4ccc(Cl)cc43)CC2)N1 ? inactive

Check the results log: what was the call for Nc1ncnc2c1ncn2[C@@H]1O[C@H](COP(=O)(O)OP(=O)(O)OP(=O)(O)O)[C@@H](O)[C@H]1O ? inactive

Check the results log: what was the call for CO[C@@H]1[C@@H](O[C@@H]2O[C@H](C)[C@@H](O[C@H]3C[C@@](C)(O)[C@@H](O)[C@H](C)O3)[C@H](N(C)C)[C@H]2O)[C@@H](CC=O)C[C@@H](C)[C@@H](O[C@@H]2CC[C@H](N(C)C)[C@@H](C)O2)/C=C/C=C/C[C@@H](C)OC(=O)C[C@H]1O ? inactive

Check the results log: what was the call for COc1ccc(C[C@@H](C)NC[C@H](O)c2ccc(O)c(NC=O)c2)cc1 ? inactive

Check the results log: what was the call for CC[N+](CC)(CC)CCC(O)(c1ccccc1)C1CCCCC1 (stereo unspecified) ? inactive

Check the results log: what was the call for C=C1CC[C@@H]2[C@](C)(CO)[C@H](O)CC[C@@]2(C)[C@@H]1C/C=C1/C(=O)OC[C@H]1O ? inactive

----------
# Tested on: NIH3T3
# test summary: Cytotoxic Profiling of Annotated Libraries Using Quantitative High-Throughput Screening (AID 1296008); also: % is scaled to controls: 0 for no effect and ±100 for the full control effect; nearly all actives have a fitted effect of over 60% in size
# assay setup: Five cell lines viability, CellTiter-Glo ATP luminescence, 48-72 h; active compounds read low
Records with an inconclusive call do not appear. Activity calls are given as the source filed them. Calls come from the whole dose curve; as a rule, active = well fitted inhibition curve with a large enough effect; inconclusive = small, poorly fitted or top-dose-only effect; inactive = flat fitted curve, though single readings scatter.
For each entry below, report its max response value.

Worked cases, max response given:
{"molecule": "OCCc1ccc(O[C@@H]2O[C@H](CO)[C@@H](O)[C@H](O)[C@H]2O)c(O)c1", "max response": "-4.15% (inactive)"}
{"molecule": "C=C1CCC2C(C)(CO[C@@H]3O[C@H](CO)[C@@H](O)[C@H](O)[C@H]3O)C(O)CCC2(C)C1C(=O)CC1=CCOC1=O (stereo partly specified)", "max response": "1.1% (inactive)"}
{"molecule": "C=C1CCC2C(OC(=O)C2(O)COC(C)=O)C2C(=C)C(O)CC12 (stereo unspecified)", "max response": "-5.53% (inactive)"}

Below are 7 molecules. Give each one its max response.
1. O=C(c1ccc(F)cc1)C1CCN(CCn2c(=O)nc3n(c2=O)CCCC3)CC1
2. O=C(NC[C@H](O)CN1CCc2ccccc2C1)c1cc(NC2COC2)ncn1
3. C/C=C/C=C/C(CC(=O)O)Nc1ccc(C=O)cc1 (stereo unspecified)
4. C=C(C)C(C)C1OC23CC4(CO2)C(CCC2C5(C)CCC(OC6OCC(O)C(OC7OC(CO)C(O)C(OC8OCC(O)C(O)C8O)C7O)C6OC6OC(CO)C(O)C6O)C(C)(C)C5CCC24C)C3C(C)(O)C1OC(C)=O (stereo unspecified)
5. COc1cc(/C=C/C(=O)OC2[C@H](O)CC(O)(C(=O)O)C[C@H]2O)ccc1O (stereo partly specified)
6. O=C(/C=C/c1ccc(O)cc1)O[C@H]1[C@@H]2C=CO[C@@H](O[C@@H]3O[C@H](CO)[C@@H](O)[C@H](O)[C@H]3O)[C@@H]2[C@@]2(CO)O[C@@H]12
7. CC1=CC(=O)CC(C)(C)C1(O)CCC(C)O (stereo unspecified)

1: -0.166% (inactive); 2: -2.53% (inactive); 3: 3.97% (inactive); 4: -2.26% (inactive); 5: -0.19% (inactive); 6: 0.736% (inactive); 7: 2.02% (inactive)

----------
# test summary: qHTS assay for small molecule agonists of the antioxidant response element (ARE) signaling pathway measured by Nrf2-dependant transcriptional activity - cell viability counter screen (AID 720653); also: % is scaled to controls: 0 for no effect and ±100 for the full control effect
# assay setup: ARE-bla HepG2 viability, CellTiter-Glo ATP luminescence, 16 h; active compounds read low
Inconclusive results are not listed. Active and inactive are the calls of the source. The call rests on the fitted dose curve; in most records, active means well fitted cell-killing curve with a large enough effect in the repeat runs; inconclusive means weak or mixed curves; inactive means flat fitted curve, though single readings scatter.
test readout: max response

Worked cases, max response given:
{"compound": "CC1=CCC(C(C)(C)O)CC1 (stereo not drawn)", "max response": "3.37% (inactive)"}
{"compound": "CCCCC(CC)COC(=O)CC(C(=O)OCC(CC)CCCC)S(=O)(=O)O (stereo not drawn)", "max response": "-6.73% (inactive)"}
{"compound": "O=CCCCC=O", "max response": "-17.7% (inactive)"}
{"compound": "CC1=C2[C@@H]([C@H](C)CC[C@H]2/C=C(\\C)C(=O)O)[C@H](O)C1", "max response": "-8.96% (inactive)"}

Below are 4 compounds. Give each one its max response.
1. CC1(C)C(C=C(Cl)Cl)C1C(=O)OCc1cccc(Oc2ccccc2)c1 (stereo not drawn)
2. C[C@H]1C[C@H]2[C@@H]3CCC4=CC(=O)C=C[C@]4(C)[C@@]3(F)[C@@H](O)C[C@]2(C)[C@@]1(O)C(=O)CO
3. Nc1ccn([C@H]2CS[C@@H](CO)O2)c(=O)n1
4. CC(C)(C)NC(=O)[C@@H]1C[C@@H]2CCCC[C@@H]2CN1C[C@@H](O)[C@H](Cc1ccccc1)NC(=O)[C@H](CC(N)=O)NC(=O)c1ccc2ccccc2n1

-3.1% (inactive) [middle of 4 runs]
-19.2% (inactive)
4.54% (inactive)
-9.17% (inactive)
